- System: M5076 Tumor Model
- PROCEDURE_SUMMARY: In vivo antitumor activity against M5076 tumor model (Example 3, Table 4)
- Design: species or system BDF1 mice; unit not given beside the values
- ASSAY_CONTEXT: M5076 s.c., BDF1 mice; i.p. days 7, 14, 21, 28; at optimal dose/MTD
# TGD (Tumor Growth Delay) >= 20 gives YES, anything below gives NO

Ask: Check the entry NC1CCC(N)CC1.[Cl][Pt]([Cl])([Cl])[Cl] (stereo not shown) : does TGD (Tumor Growth Delay) equal or exceed 20?
Reply: NO

Ask: Does the compound N[C@@H]1CCCC[C@H]1N.[Cl][Pt+2]([Cl])([Cl])[Cl] [Tetraplatin, reference compound] have recorded TGD (Tumor Growth Delay) that is 20 or more?
Reply: NO

Ask: # bool: TGD (Tumor Growth Delay) of NC1CCC(N)CC1.O.O=C([O-])C1(C(=O)[O-])CCC1.[Pt+2] >= 20
Reply: YES

Ask: Would you say NC1CCC(N)CC1.O=C1[O][Pt][O]C(=O)C1O shows TGD (Tumor Growth Delay) at minimum 20?
Reply: YES

Ask: Has N.N.[Cl][Pt][Cl] [Cis-platin, cis-diaminedichloroplatinum(II), reference compound] a recorded TGD (Tumor Growth Delay) greater than or equal to 20?
Reply: YES

Ask: Does TGD (Tumor Growth Delay) meet or surpass 20 for CC(C(=O)[O-])C(=O)[O-].N[C@H]1CC[C@@H](N)CC1.O.[Pt+2] ?
Reply: YES

Ask: Check this compound for TGD (Tumor Growth Delay) at or above 20: NC1CCC(N)CC1.O.O=S(=O)([O-])[O][Pt+] (stereo not shown)
Reply: NO

* * *

- Tested on: L1210/0 cells
- PROCEDURE_SUMMARY: Modified MTT cytotoxicity assay, murine leukemia L1210/0 (Example 2, Table 3)
- Assay type: cell-based
- ASSAY_CONTEXT: L1210/0; MTT, continuous exposure 5 days
PROPERTY: pIC50
Keep in mind that pIC50 stands for -log10 of concentration in molar terms.

In plain terms, N.N.[Cl][Pt][Cl] [Cis-platin, cis-diaminedichloroplatinum(II), reference compound] has a documented pIC50 of 6.64

pIC50 measured on NC1CCC(N)CC1.O.O=S(=O)([O-])[O][Pt+] (stereo not drawn) = 7.10

Short answer for CC(C(=O)[O-])C(=O)[O-].N[C@H]1CC[C@@H](N)CC1.O.[Pt+2] : pIC50 was 6.55

get_value(item= NC1CCC(N)CC1.O.O=C([O-])C1(C(=O)[O-])CCC1.[Pt+2] , readout=pIC50) returns 5.80

For this molecule ( N[C@@H]1CCCC[C@H]1N.[Cl][Pt+2]([Cl])([Cl])[Cl] [Tetraplatin, reference compound] ), measured pIC50 is 6.96

Per the record, NC1CCC(N)CC1.[OH][Pt]([OH])([Cl])[Cl] (stereo not drawn) has pIC50 of 6.06

Data point: NC1CCC(N)CC1.O=C1[O][Pt][O]C(=O)C1O ; pIC50 = 6.30

Entry under test: NC1CCC(N)CC1.O=C1[O][Pt]([Cl])([Cl])[O]C(=O)C12CCC2 . Its pIC50 was 6.85

# pIC50 (molecule: NC1CCC(N)CC1.O=C1[O][Pt][O]C1=O (stereo not drawn) ) is 6.62
